Exercise: for every item that follows, state its recorded pKi.
Note: pKi values are expressed as the negative base-10 logarithm of concentration in M.

Query: Record O=S(=O)(N1CCC23c4c5ccc(O)c4OC2c2[nH]c4ccccc4c2CC3(O)C1C5)C(F)(F)F (stereo not shown) [9b] : what is its pKi with human MOR (Homo sapiens, UniProt P35372)?
Reply: 4.93

Query: Record C=CS(=O)(=O)N1CCC23c4c5ccc(O)c4OC2c2[nH]c4ccccc4c2CC3(O)C1C5 (stereo not shown) [9g] : what is its pKi with human MOR (Homo sapiens, UniProt P35372)?
Reply: 5.45

Query: Record O=S(=O)(C1CC1)N1CCC23c4c5ccc(O)c4OC2c2[nH]c4ccccc4c2CC3(O)C1C5 (stereo not shown) [9f] : what is its pKi with human MOR (Homo sapiens, UniProt P35372)?
Reply: 5.41

Query: Record O=S(=O)(Cc1ccccc1)N1CCC23c4c5ccc(O)c4OC2c2[nH]c4ccccc4c2CC3(O)C1C5 (stereo not shown) [9d] : what is its pKi with human MOR (Homo sapiens, UniProt P35372)?
Reply: 5.29

---

Exercise: for every item that follows, state its recorded Ki.

Query: Record C=CS(=O)(=O)N1CCC23c4c5ccc(O)c4OC2c2[nH]c4ccccc4c2CC3(O)C1C5 (stereo not drawn) : what is its Ki with human KOR (Homo sapiens)?
Reply: 59.1 µM

Query: Record O=S(=O)(C1CC1)N1CCC23c4c5ccc(O)c4OC2c2[nH]c4ccccc4c2CC3(O)C1C5 (stereo not drawn) : what is its Ki with human KOR (Homo sapiens)?
Reply: 0.0136 µM

Query: Record O=S(=O)(c1ccccc1)N1CCC23c4c5ccc(O)c4OC2c2[nH]c4ccccc4c2CC3(O)C1C5 (stereo not drawn) : what is its Ki with human KOR (Homo sapiens)?
Reply: 0.0956 µM

Query: Record O=S(=O)(CCc1ccccc1)N1CCC23c4c5ccc(O)c4OC2c2[nH]c4ccccc4c2CC3(O)C1C5 (stereo not drawn) : what is its Ki with human KOR (Homo sapiens)?
Reply: 17.8 µM

Query: Record O=S(=O)(Cc1ccccc1)N1CCC23c4c5ccc(O)c4OC2c2[nH]c4ccccc4c2CC3(O)C1C5 (stereo not drawn) : what is its Ki with human KOR (Homo sapiens)?
Reply: 18.8 µM

Query: Record O=S(=O)(N1CCC23c4c5ccc(O)c4OC2c2[nH]c4ccccc4c2CC3(O)C1C5)C(F)(F)F (stereo not drawn) : what is its Ki with human KOR (Homo sapiens)?
Reply: 0.675 µM
